tested on: NCI-H322M lung; test: NCI tumour cell line growth inhibition, 384-well format
MEASURED METRIC: TGI

MOL | MEASURED METRIC | RECORDED RESULT
COc1c(Nc2ncc(Cl)c(N[C@@H]3[C@H]4C=CC(C4)[C@@H]3C(N)=O)n2)ccc2c1CC[C@@H](N1CCOCC1)CC2 | TGI | 11.5 µM
CCNC(=O)Nc1ccc(-c2nc3c(c(N4CCOC[C@@H]4C)n2)CCN(C2COC2)C3)cc1 | TGI | > 100 µM
CN(C)c1cc2c(cc1Sc1nc3c(N)nccc3n1CCNCC(C)(C)C)OCO2 | TGI | 14.8 µM
O=S(=O)(c1ccc2c(c1)C(=NO)c1cc(S(=O)(=O)N3CCCCC3)ccc1-2)N1CCCCC1 | TGI | 0.32 µM
C[C@H](Nc1ccc(C#N)n(C)c1=O)c1cc2cc(Cl)ccc2[nH]c1=O | TGI | > 100 µM

Ref: PubChem BioAssay (NCI)
